B1: Intersectin-1, residues 909 to 971; numbered along this chain, Q15811 (parent)
chain: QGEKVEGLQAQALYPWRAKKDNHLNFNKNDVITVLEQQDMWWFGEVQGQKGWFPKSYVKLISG

variants of: B1; assay: abundance fitness (aPCA) (normalised: wild type 0, dead -1); higher = more abundant; growth selection in yeast, the domain comes from the species named; details: Homo sapiens
Label yes (1) when abundance fitness is at or above -0.2; anything below gets no (0).

Below are worked cases with known answers.
| SEQUENCE_CHANGE | QUALITATIVE_LABEL |
| --- | --- |
| K59M | yes (1) |
| S56G | yes (1) |

*Q* Reported abundance fitness reaches at least -0.2 for `K50H` ?
*A* no (0)

*Q* Reported abundance fitness reaches at least -0.2 for `L24A` ?
*A* no (0)

*Q* Reported abundance fitness reaches at least -0.2 for `G2R` ?
*A* no (0)

*Q* Reported abundance fitness reaches at least -0.2 for `T33N` ?
*A* no (0)
